System: MRSA 43300
protocolText: Antibacterial activity, NCCLS dilution method (Table 9)
Assay type: cell-based, S. aureus
appliedConditions: Staphylococcus aureus, MRSA, MRSA 43300; dilution method; labels marked a tested as a mixture of diastereomers; read-out: MRSA 43300 MIC
measuredAttribute: MIC (µg/mL)
Give the value in µg/mL but do not write µg/mL after it.

Inquiry: Item: CO[C@@H]1[C@@H](O)[C@@H](OC)C(NC2=CC(=O)c3c(cc4c(c3O)C(=O)[C@]3(OC)[C@H](O)Cc5cc(C)c(C(=O)N6CCCCC6)c(O)c5[C@]3(O)C4=O)C2=O)O[C@H]1C (mixture of isomers) Test system: MRSA 43300 Read-out: MIC Value: ?
Reply text: 1

Inquiry: What do we get for "COC(=O)c1c(C)cc2c(c1O)[C@]1(O)C(=O)c3cc4c(c(O)c3C(=O)[C@]1(OC)[C@H](O)C2)C(=O)C=C(N[C@H]1O[C@@H](C)[C@H](OC)/C(=N/OCC(=O)O)[C@H]1OC)C4=O" ?
Reply text: 8

Inquiry: What do we get for CO[C@@H]1[C@@H](O)[C@@H](OC)C(NC2=CC(=O)c3c(cc4c(c3O)C(=O)[C@]3(OC)[C@H](O)Cc5cc(C)c(C(=O)N(C)C)c(O)c5[C@]3(O)C4=O)C2=O)O[C@H]1C (mixture of isomers) ?
Reply text: 16

Inquiry: What do we get for "COC(=O)COc1c(C(=O)OC)c(C)cc2c1[C@]1(O)C(=O)c3cc4c(c(O)c3C(=O)[C@]1(OC)[C@H](O)C2)C(=O)C=C(N[C@H]1O[C@@H](C)[C@H](OC)[C@@H](O)[C@H]1OC)C4=O" ?
Reply text: 0.12
